Assignment: determine reported EC50 for the given compounds.
Assay: C. albicans growth with fluconazole, confirmation, fluorescence, retest (AID 2467)
Type: functional, cell-based
Calls of active or inactive are those of the source.

I am curious: what EC50 value has been reported for `Oc1c(Cl)cc(Cl)c(Cl)c1Cc1c(O)c(Cl)cc(Cl)c1Cl` ?
> 38000 nM (not active)

Tell me the measured EC50 of `COc1ccccc1C(=O)NNC(=S)NC(=O)c1cc(OC)c(OC)c(OC)c1` , please.
2490 nM (active)

Given the compound `CCCCCc1ccc(OCCOCC[n+]2cn(C)c3ccccc32)c(CCCCC)c1` , what is its reported EC50?
1310 nM (active)

Requested field: EC50. Item: `Cc1cccc2sc(NNC(=O)c3cc(-c4cccs4)nc4ccccc34)nc12`
507 nM (active)

Which EC50 value is on record for `COc1cc(/C=N/Nc2ccc(F)cc2F)cc(OC)c1OC` ?
> 38000 nM (not active)

Tell me the measured EC50 of `O=C(CN1C(=O)S/C(=C\c2ccccn2)C1=O)Nc1ccccc1` , please.
> 38000 nM (not active)

Which value of EC50 has been reported for CCCC(=O)NC(c1ccc(C(C)C)cc1)c1ccc2cccnc2c1O (centres undefined) in the records?
621 nM (active)

Given the entry `CN(C)c1ccc(/C=C/C=C/c2sc3ccccc3[n+]2C)cc1.[O-][Cl+3]([O-])([O-])[O-]` , report its measured EC50.
194 nM (active)

Need EC50 of Oc1c(C(c2ccccn2)N2CCC(Cc3ccccc3)CC2)cc(Cl)c2cccnc12 (centres undefined) , thanks.
1460 nM (active)

====

Experiment: inhibitors of intracellular T. cruzi replication, confirmation, NIH3T3 host cells, beta-gal luminescence (AID 2044);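 further: intracellular parasites grown in NIH/3T3 mouse fibroblasts as host cells; luminescent beta-galactosidase reporter signal from transgenic T. cruzi replicating inside host cells; inhibitors lower the luminescence signal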
Type: functional, cell-based
Active and inactive are the calls of the source.
RECORDED METRIC: EC50

Would you mind telling me what EC50 value was observed for COc1ccc(-n2cc(CN(C)C(C)c3ccncn3)c(-c3cccc(F)c3)n2)cc1 (stereo not given) ?
2990 nM (active)

What value of EC50 has been recorded for this entry: C/C(=N\NC(N)=S)C1=CCC2C3CC[C@H]4CC(O)CC[C@]4(C)C3CC[C@]12C (stereo not given in full)
159 nM (active)

// query EC50 value for entry `CN1CCN(CCOc2ccc(Cc3ccccc3)cc2)CC1`
378 nM (active)

What does the data say about its EC50? Entry: CCOc1ccc(CN2CCN(CC3=Cc4cccc(OC)c4OC3)CC2CCO)cc1 (stereo not given)
303 nM (active)

For the molecule shown here, `Cc1nc(NC(=N)N)nc2c(C)cccc12` , give the reported EC50.
371 nM (active)

====

Biological target: Cytochrome P450 1A2 (Homo sapiens);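 further: PubChem cytochrome P450 panel assay, CYP1A2 panel member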
Sequence (P05177 whole entry): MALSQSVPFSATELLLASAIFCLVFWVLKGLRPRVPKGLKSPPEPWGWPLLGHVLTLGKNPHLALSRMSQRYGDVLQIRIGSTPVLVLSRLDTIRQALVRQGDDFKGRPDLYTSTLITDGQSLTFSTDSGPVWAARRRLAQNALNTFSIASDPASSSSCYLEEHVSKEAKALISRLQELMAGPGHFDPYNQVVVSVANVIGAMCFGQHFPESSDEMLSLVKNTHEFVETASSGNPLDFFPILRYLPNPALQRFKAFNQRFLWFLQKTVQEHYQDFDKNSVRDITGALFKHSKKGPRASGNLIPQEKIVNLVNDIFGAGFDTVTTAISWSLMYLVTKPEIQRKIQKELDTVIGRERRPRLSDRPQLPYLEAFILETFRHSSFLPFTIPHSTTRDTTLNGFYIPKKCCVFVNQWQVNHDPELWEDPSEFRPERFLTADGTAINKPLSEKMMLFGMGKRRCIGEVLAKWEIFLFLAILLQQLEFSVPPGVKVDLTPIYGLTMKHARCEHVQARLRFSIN
RECORDED METRIC: AC50

I am curious: what AC50 value has been reported for `O=C(Nc1ccccc1)N1CC[C@@]2(CCCN(C(=O)c3cc(C(F)(F)F)cc(C(F)(F)F)c3)C2)C1` ?
25.1 µM (inconclusive)

Consider the molecule `Cc1cc(C)cc(OCC(=O)Nc2ccc3c4c(cccc24)CC3)c1` and give its measured AC50.
2.51 µM (inconclusive)

I have this molecule here, `O=c1c(-c2ccc(Cl)cc2)[n+]([O-])c2ccccc2n1OCc1ccccn1` , and I need its recorded AC50.
1.26 µM (inconclusive)

Name the recorded AC50 for `COc1ccc(NC(=O)CN2CCN(CC(=O)Nc3ccccc3Cl)CC2)cc1` .
25.1 µM (inconclusive)

Quick one: AC50 for `COc1ccc(N2CCN(CCNC(=O)c3c(C)cc(=O)oc3C)CC2)cc1` ?
25.1 µM (inconclusive)

Consider the molecule `CCOc1ccc(NC(=O)CCNS(=O)(=O)c2ccc3c(c2)c(=O)n(C)c(=O)n3C)cc1` and give its measured AC50.
2.51 µM (inconclusive)

Using the record for `COc1ccc(C(=O)Nc2cc(C(C)=O)c(/C=C/N(C)C)oc2=O)cc1` , report its AC50.
15.8 µM (inconclusive)

Can you share its AC50? I mean this molecule: COc1cc(C2NC(=O)NC(O)(C(F)(F)F)C2C(=O)c2ccc(Cl)cc2)ccc1O (stereo unspecified)
39.8 µM (inconclusive)

Consider the molecule CN1[C@@H]2CC[C@H]1CC(O[C@@H](c1ccccc1)c1ccccc1N)C2 (stereo partly specified) and give its measured AC50.
15.8 µM (inconclusive)

Which AC50 is reported for this molecule? `Cc1nc(S(=O)(=O)c2cccc(Cl)c2)nc2c1CCC2`
12.6 µM (inconclusive)

Data request, read-out AC50, for `COc1cc(C[C@H]2C(=O)OC[C@@H]2Cc2ccc(OC)c(OC)c2)ccc1O`
31.6 µM (inconclusive)

Fill in the blank: the reported AC50 of `Cn1c(N)nc2c(nc(OCc3ccccc3)n2[C@@H]2O[C@H](CO)[C@@H](O)[C@@H]2O)c1=O` is ____.
0.00251 µM (inconclusive)

// AC50 lookup, key: `O=C(c1nc2ccc([N+](=O)[O-])cc2nc1O)[C@@H](O)c1ccc2c(c1)OCO2`
3.16 µM (inconclusive)

Query (molecule): `COc1ccc(NC(=O)N2CC[C@@]3(CCCN(C(C)=O)C3)C2)cc1` ; field requested: AC50
39.8 µM (inconclusive)

Using the record for `O=C(c1ccncc1)N1CCC2(CC1)CCN(C(c1ccccc1)c1ccccc1)CC2` , report its AC50.
12.6 µM (inconclusive)

Name the reported AC50 value associated with the molecule `CCN(CC)C(=O)CSc1nnc(-c2ccco2)n1N`
17.8 µM (inconclusive)

Data request, read-out AC50, for `CC(C)(C)NS(=O)(=O)c1ccc(NC(=O)c2cc(-c3ccccc3)nc3ccccc23)cc1`
3.16 µM (inconclusive)

What AC50 value was documented for this molecule, `CCOC(=O)Nc1ccc(NCc2ccc(F)cc2)nc1N` ?
39.8 µM (inconclusive)

Entry `Cc1nn(C)c(Oc2cccc(Cl)c2)c1C=O` : reported AC50 = ?
11.2 µM (inconclusive)

Please give the measured AC50 for this molecule: `COc1ccccc1NC(=O)[C@H](COCc1ccccc1)NC(=O)OC(C)(C)C`
25.1 µM (inconclusive)

// AC50 lookup, key: `CC1=N/C(=C\c2ccc([N+](=O)[O-])cc2)C(=O)N1c1ccc(Br)c(C)c1`
5.62 µM (inconclusive)

====

Answer each item with its documented IC50.
Target: Transitional endoplasmic reticulum ATPase (Homo sapiens)
Sequence (P55072 whole entry): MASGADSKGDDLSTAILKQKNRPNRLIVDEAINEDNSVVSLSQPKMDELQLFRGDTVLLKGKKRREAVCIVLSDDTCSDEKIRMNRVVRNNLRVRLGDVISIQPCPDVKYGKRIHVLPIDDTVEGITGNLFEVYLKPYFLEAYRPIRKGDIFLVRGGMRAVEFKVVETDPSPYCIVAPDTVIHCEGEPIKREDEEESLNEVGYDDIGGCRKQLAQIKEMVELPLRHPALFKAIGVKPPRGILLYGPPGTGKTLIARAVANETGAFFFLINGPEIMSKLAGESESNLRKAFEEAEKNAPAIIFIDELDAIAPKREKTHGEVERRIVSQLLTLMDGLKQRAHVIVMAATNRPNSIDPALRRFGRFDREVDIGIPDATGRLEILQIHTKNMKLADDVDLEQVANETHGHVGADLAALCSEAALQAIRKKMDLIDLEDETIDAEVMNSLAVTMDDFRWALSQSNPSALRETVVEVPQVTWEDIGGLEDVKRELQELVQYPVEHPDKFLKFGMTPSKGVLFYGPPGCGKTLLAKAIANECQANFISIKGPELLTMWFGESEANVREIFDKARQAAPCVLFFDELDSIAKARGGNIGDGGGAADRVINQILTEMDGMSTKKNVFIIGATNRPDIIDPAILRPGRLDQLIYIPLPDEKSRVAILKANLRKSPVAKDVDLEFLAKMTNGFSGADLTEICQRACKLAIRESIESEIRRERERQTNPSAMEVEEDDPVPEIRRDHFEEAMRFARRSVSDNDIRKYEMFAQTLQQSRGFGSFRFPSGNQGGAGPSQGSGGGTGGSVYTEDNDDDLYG
Assay: p97 ATPase inhibitors, dose response, biochemical (AID 1534)
The source made the active and inactive calls.

Fill in the recorded IC50 for this molecule, with Transitional endoplasmic reticulum ATPase (Homo sapiens) as test system: `N#Cc1c(N2CCCCC2)nc(N)c2c(N)nc(SCC(=O)O)cc12`
> 50 µM (not active)

Param readout = IC50; param system = Transitional endoplasmic reticulum ATPase (Homo sapiens); param query = `Cc1cc(Nc2ccccc2)nc(-c2ccccc2O)n1` ; response: value
> 50 µM (not active)

What value of IC50 on Transitional endoplasmic reticulum ATPase (Homo sapiens) does Oc1c(Cl)cc(Cl)c(Cl)c1Cc1c(O)c(Cl)cc(Cl)c1Cl [HEXACHLOROPHENE] have?
5.49 µM (active)

Form entry - test system: Transitional endoplasmic reticulum ATPase (Homo sapiens); read-out: IC50; molecule: `Cc1ccc(SC/C(O)=C(\C#N)c2nc3ccccc3s2)cc1`
> 50 µM (not active)

====

Biological target: Cytochrome P450 2C19 (Homo sapiens, UniProt P33261)
Sequence (P33261 whole entry): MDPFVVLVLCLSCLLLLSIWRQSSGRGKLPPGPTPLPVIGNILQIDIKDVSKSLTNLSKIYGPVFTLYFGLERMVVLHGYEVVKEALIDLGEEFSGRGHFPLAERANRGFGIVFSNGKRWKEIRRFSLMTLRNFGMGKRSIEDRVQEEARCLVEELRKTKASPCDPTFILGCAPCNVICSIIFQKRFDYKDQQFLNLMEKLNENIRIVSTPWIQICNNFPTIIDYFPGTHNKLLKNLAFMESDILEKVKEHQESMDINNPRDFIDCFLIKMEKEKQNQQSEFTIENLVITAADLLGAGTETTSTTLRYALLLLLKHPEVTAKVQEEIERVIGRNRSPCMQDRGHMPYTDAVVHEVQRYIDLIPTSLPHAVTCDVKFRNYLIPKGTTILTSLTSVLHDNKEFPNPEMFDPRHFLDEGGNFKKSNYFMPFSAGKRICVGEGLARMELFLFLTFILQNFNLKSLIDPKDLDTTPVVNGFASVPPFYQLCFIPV
Experiment: Cytochrome panel assay with activity outcomes. Panel member name: p450-cyp2c19 Compounds with AC50 equal or less than 10 uM are considered active
Assay type: functional
Settings: read-out: AC50
RECORDED METRIC: AC50

// AC50 lookup, key: `COc1cc(C[C@H]2C(=O)OC[C@@H]2Cc2ccc(OC)c(OC)c2)ccc1O`
0.00251 µM (inconclusive)

I would be grateful if you could share the reported AC50 for `Cc1cc(C)cc(OCC(=O)Nc2ccc3c4c(cccc24)CC3)c1` .
11.2 µM (inconclusive)

State the recorded AC50 for this entry: CC1=C(C(=O)OCc2ccccc2)C(c2ccc(Cl)cc2)NC(=O)N1CCCCCC(=O)O (stereo unspecified)
39.8 µM (inconclusive)

Given the entry `CSc1nc(C)c2c(n1)N(c1ccc(C(F)(F)F)cc1)CC2` , report its measured AC50.
11.2 µM (inconclusive)

Reported AC50, molecule `O=C(c1ccncc1)N1CCC2(CC1)CCN(C(c1ccccc1)c1ccccc1)CC2` : ____
39.8 µM (inconclusive)

Name the reported AC50 value associated with the molecule `COc1cc(CNCCc2ccccc2)ccc1OCC(=O)NC(C)(C)C`
28.2 µM (inconclusive)

Give the measured AC50 of `Cc1ccc(/C=C/c2ccc(=O)n(Cc3ccc(Cl)cc3Cl)n2)cc1` .
4.47 µM (inconclusive)

# input molecule: `COc1ccc(C(=O)N2CCC3(CCCN(C(=O)Nc4cccc(F)c4)C3)CC2)cc1` ; wanted: its AC50
39.8 µM (inconclusive)

Could you share which AC50 value was measured for `CCn1c(S)nnc1-c1ccc2ncccc2c1` ?
20 µM (inconclusive)

Requested read-out: AC50. Entry: `O=C(Nc1cccc(F)c1)N1CC[C@@]2(CCCN(C(=O)c3cc(C(F)(F)F)cc(C(F)(F)F)c3)C2)C1`
25.1 µM (inconclusive)

Would you mind telling me what AC50 value was observed for CC(C)c1ccc(N(C(=O)C(F)(F)F)C(C(=O)NC2CCCCC2)c2ccncc2)cc1 (stereo unspecified) ?
1.12 µM (inconclusive)

Look at this molecule and give its reported AC50. `O=c1cnc2cncnc2n1Cc1ccccc1`
39.8 µM (inconclusive)

AC50 for `O=c1c(-c2ccc(Cl)cc2)[n+]([O-])c2ccccc2n1OCc1ccccn1` ?
2.82 µM (inconclusive)

Please give the measured AC50 for this molecule: COc1cc(C2NC(=O)NC(O)(C(F)(F)F)C2C(=O)c2ccc(Cl)cc2)ccc1O (stereo unspecified)
11.2 µM (inconclusive)

I have this molecule here, `Nc1ccc(/N=N\c2ccc(-c3ccc(O)cc3)cc2)c2ccc(S(=O)(=O)O)cc12` , and I need its recorded AC50.
6.31 µM (inconclusive)

# get_value(readout='AC50', item= `COc1cccc(Cn2c(=O)c(C)nc3cnc(N4CCN(C)CC4)nc32)c1` )
39.8 µM (inconclusive)

Data request, read-out AC50, for `COc1ncc2nc(-c3cc(F)cc(F)c3)c(=O)n(C[C@H]3CCCO3)c2n1`
31.6 µM (inconclusive)

For the molecule shown here, `O=C(Nc1cccc(F)c1)N1CCCC2(CCN(C(=O)c3cnccn3)CC2)C1` , give the reported AC50.
20 µM (inconclusive)

Bench note: what AC50 did `O=C(Nc1cccc(F)c1)Nc1ccccn1` show?
17.8 µM (inconclusive)

Sample `CCOC(=O)Nc1ccc(NCc2ccc(F)cc2)nc1N` — what was its AC50?
25.1 µM (inconclusive)

Reported AC50, molecule `COc1ccc(C(=O)Nc2cc(C(C)=O)c(/C=C/N(C)C)oc2=O)cc1` : ____
10 µM (inconclusive)
